Taken from PubChem BioAssay.

Task for the reader: assign each of the following molecules its reported z-score.
Assay Info: FRG1 promoter luciferase signal modulators, primary screen, FRG1 inhibition for FSHD, cell-based, C2C12 myotubes, firefly/Renilla luciferase, luminescence (AID 1084)
Test Conditions: higher = more signal, called active from +8 up or from −8 down
Give bare numbers.

INSERT INTO assay_data (molecule, endpoint, assay_result) VALUES
  ('CO[C@@H]1C=CCC(=O)N[C@@H](C)C(=O)OC[C@@H](NS(=O)(=O)c2ccc(C)cc2)[C@H](C)C=CCC(=O)OC[C@H]1C', 'z-score', -1.04),
  ('CCN1C(=O)[C@H]2[C@H]3[C@H](O)[C@H](O)CC(=NO[C@@H]4O[C@H](COC(C)=O)[C@@H](OC(C)=O)[C@H](OC(C)=O)[C@H]4OC(C)=O)[C@@H]3CC[C@H]2C1=O', 'z-score', 0.186),
  ('CCN1C(=O)[C@H]2[C@H]3[C@H](O)[C@H](O)CC(=NO[C@@H]4O[C@H](CO)[C@@H](O)[C@H](O)[C@H]4O)[C@H]3CC[C@H]2C1=O', 'z-score', -1.07);

Would you mind listing z-score for each of the following molecules?
1. CCOC(=O)[C@H](Cc1ccccc1)NC(=O)CCC1CC(OC(=O)NCc2cccc3ccccc23)CC2(CCCC(COC(=O)NCCOc3ccccc3)O2)O1 (stereo partly specified)
2. CCO[C@H](c1cc(OC)cc([N+](=O)[O-])c1OC)[C@H](C)[C@@H](OC)[C@H](C)C=CCC(=O)OC
3. COc1ccc(COC(=O)NN=C2C[C@@H](O)[C@@H](O)[C@@H]3[C@@H]4C(=O)N(C(C)(C)C)C(=O)[C@@H]4CC[C@@H]23)cc1

# output
1. 0.688
2. -0.0602
3. 1.24
